- measurement.description: NCI Yeast Anticancer Drug Screen. Data for the bub3 strain (AID 167)
- assay.setup: S. cerevisiae bub3 mutant strain, at 50.0 µM, stronger effect = higher value
This is part of a sample that, as a whole, favours compounds with a hit. Of some 79,000 tested, about 15% had one in any assay.

compound	endpoint.unit	growth inhibition
Cc1ccc(N=Cc2ccccc2O)cc1.[Co]	%	1.45
Cc1cc[n+](CC(=O)CCc2ccc(C(=O)C[n+]3ccc(C)cc3)cc2)cc1	%	-3.95
O=c1[nH]cc(Cl)cc1[N+](=O)[O-]	%	-17.8
CC1=CC(=O)C2CC1C2(C)C (stereo not drawn)	%	4.6
O=C(O)C(c1ccccc1)C1(O)CC2CCC1C2 (stereo not drawn)	%	-56
O=C(Nc1ccc(Cl)c(Cl)c1)OCC1CC2C=CC1C2 (stereo not drawn)	%	94.9
CC1=CC(=O)CC(C)(C)C1(O)/C=C/C(C)=C/C(=O)O (stereo not drawn)	%	-41.7
O=C(O)CN=CC(O)C(O)C(O)C(O)CO (stereo not drawn)	%	9.15
CCCCCCC(/C=N\N=C\c1ccco1)=C\c1ccccc1	%	16.9
CN(C)c1ccc(/C=N\N=C\c2ccco2)cc1	%	-7.55
CC1CCCC(C)C1CO (stereo not drawn)	%	-17.8
O=C(O)c1ccc(S(=O)(=O)c2cccc(Cl)c2)cc1	%	-16.1
C#C/C=C/CC(OC(C)=O)C1C/C=C\CC(Br)C(CC)O1 (stereo not drawn)	%	49
